EXPERIMENTAL DETAILS: recombinant barcode read abundance after kanamycin selection (control-corrected) (log10(CPM+1)); higher = more efficient recombination; sequences stand for … in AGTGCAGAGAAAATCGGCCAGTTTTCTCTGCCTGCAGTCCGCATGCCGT…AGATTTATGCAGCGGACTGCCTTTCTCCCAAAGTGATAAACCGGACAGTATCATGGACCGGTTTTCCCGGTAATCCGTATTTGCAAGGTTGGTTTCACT; site = the 11-nt target;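 further: IS621 recombinase and bridge RNA in Escherichia coli cells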
// label = rule met if recombinant barcode read abundance (log10) is not less than 0.4, otherwise rule not met

These recorded examples may help you get a feel for the data.
INSERT INTO measurements (residue_sequence, answer_label) VALUES
  ('GAGTGGCCTTGGGTTCTAACCTGTTGCGG (site GAGTGGCCTCC)', 'rule met'),
  ('CACTGGACTTGGGTTCTAACCTGTTGCCT (site CATTGGACTAG)', 'rule not met'),
  ('GTAATCCCTTGGGTTCTAACCTGTTGCCG (site GTAATCCCTCG)', 'rule met'),
  ('TGGCCCTCTTGGGTTCTAACCTGTTGCTC (site TGGCCCTCTCA)', 'rule not met'),
  ('AGTCTACCTTGGGTTCTAACCTGTTGCCT (site CGTCTACCTAG)', 'rule not met'),
  ('GAGGGGTCTTGGGTTCTAACCTGTTGCAC (site CAGGCGTCTGT)', 'rule not met');

[Q] Is the recorded value of recombinant barcode read abundance (log10) equal to or greater than 0.4 for this sequence? GTCCGTCCTTGGGTTCTAACCTGTTGCTT (site GTCCGTCCTAG)
[A] rule not met

[Q] Then CAGGTGCCTTGGGTTCTAACCTGTTGCCT (site CCGGTGCCTAG) ?
[A] rule not met

[Q] Again, but for GGCTGAGCTTGGGTTCTAACCTGTTGCCT (site GACTGAGCTAC)
[A] rule not met

---

EXPERIMENTAL DETAILS: recombinant barcode read abundance after kanamycin selection (control-corrected) (log10(CPM+1)); higher = more efficient recombination; sequences stand for … in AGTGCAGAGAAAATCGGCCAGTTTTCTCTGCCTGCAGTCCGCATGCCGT…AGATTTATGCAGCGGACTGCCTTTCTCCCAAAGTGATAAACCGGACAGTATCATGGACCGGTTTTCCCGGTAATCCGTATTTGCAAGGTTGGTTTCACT; site = the 11-nt target
PARAMETER: recombinant barcode read abundance (log10)

Answered cases to consult:
INSERT INTO measurements (residue_sequence, result) VALUES
  ('AGTTAGTCTTGGGTTCTAACCTGTTGCAG (site AGTTAGTCTCT)', 1.48),
  ('CCTCGGGCTTGGGTTCTAACCTGTTGCAG (site CCTCGGGCTCT)', 1.23),
  ('TATGTAGCTTGGGTTCTAACCTGTTGCCG (site TATGTAGCTAG)', 0.486),
  ('ATGCCAACTTGGGTTCTAACCTGTTGCCT (site ATGCCGACTAG)', 0.204),
  ('GGTACTCCTTGGGTTCTAACCTGTTGCGT (site GGTACGCCTAC)', 0.18);

# evaluate next
[Q] Entry under review: CAGCATCCTTGGGTTCTAACCTGTTGCAG (site ATCACGTCTAG) . Reported recombinant barcode read abundance (log10)?
[A] 0.157
